System: LXFL 529
protocol_description: NCI tumour cell line growth inhibition, 48 h
The source made the active and inactive calls. Cut-off read from the data, not from the text of the source: active = GI50 up to about 1.1 µM and inactive = higher.
Overview of recorded GI50 for various compounds
reported_endpoint: GI50

[
  {
    "compound": "CC(=O)N1CC(=O)NC1=S",
    "reported_endpoint": "GI50",
    "measured_result": "> 100 µM (inactive)"
  },
  {
    "compound": "CC(=O)N/C(=C\\c1cccc([N+](=O)[O-])c1)c1nc2ccc3c(c2[nH]1)C(=O)c1ccccc1C3=O",
    "reported_endpoint": "GI50",
    "measured_result": "29.3 µM (inactive)"
  },
  {
    "compound": "Nc1nc(Cl)cc(NCCCCCNc2cc(Cl)nc(N)n2)n1",
    "reported_endpoint": "GI50",
    "measured_result": "26.9 µM (inactive)"
  },
  {
    "compound": "COc1ccc(/C=N/n2cnc3c(sc(=S)n3-c3ccccc3)c2=O)cc1",
    "reported_endpoint": "GI50",
    "measured_result": "16.9 µM (inactive)"
  },
  {
    "compound": "COc1ccc2occ(CCC(=O)O)c2c1",
    "reported_endpoint": "GI50",
    "measured_result": "> 100 µM (inactive)"
  },
  {
    "compound": "O=C(O)C1=NN=C(C(=O)O)NN1",
    "reported_endpoint": "GI50",
    "measured_result": "> 100 µM (inactive)"
  },
  {
    "compound": "Cc1cccc(NC(=O)c2c(N)[n+]([O-])c3ccccc3[n+]2[O-])c1",
    "reported_endpoint": "GI50",
    "measured_result": "11 µM (inactive)"
  },
  {
    "compound": "O=C(CC1(O)C(=O)Nc2c(Cl)cc(Cl)cc21)c1ccc2ccccc2c1 (centres undefined)",
    "reported_endpoint": "GI50",
    "measured_result": "9.16 µM (inactive)"
  },
  {
    "compound": "CCOC(=O)C(=O)C(C#N)c1ccc(Cl)cc1 (centres undefined)",
    "reported_endpoint": "GI50",
    "measured_result": "> 100 µM (inactive)"
  },
  {
    "compound": "CCOC(=O)/C(C#N)=C(O)/C(=C\\c1ccc(Br)cc1)NC(=O)c1ccccc1",
    "reported_endpoint": "GI50",
    "measured_result": "> 100 µM (inactive)"
  },
  {
    "compound": "O=C1OCC2C1C1c3ccccc3C(O)c3ccccc3C21 (centres undefined)",
    "reported_endpoint": "GI50",
    "measured_result": "> 100 µM (inactive)"
  },
  {
    "compound": "N#Cc1ccccc1NC(=O)/C(=N\\N)C(C(=O)c1ccncc1)C1OC(=O)c2ccccc21 (centres undefined)",
    "reported_endpoint": "GI50",
    "measured_result": "> 100 µM (inactive)"
  },
  {
    "compound": "COc1cccc(NC(=O)CC(=O)N2N=C(n3ccc4ccccc43)CC2c2ccccc2)c1 (centres undefined)",
    "reported_endpoint": "GI50",
    "measured_result": "> 100 µM (inactive)"
  },
  {
    "compound": "Cc1cccc(NC(=O)c2cccc([N+](=O)[O-])c2O)c1C",
    "reported_endpoint": "GI50",
    "measured_result": "34 µM (inactive)"
  },
  {
    "compound": "N#Cc1cccc(/C=N/N/C(N)=N/O)c1",
    "reported_endpoint": "GI50",
    "measured_result": "39.4 µM (inactive)"
  },
  {
    "compound": "OCC(O)C(OC1OC(CO)C(O)C(O)C1O)c1nn(-c2ccccc2)c2nc3cc(Cl)c(Cl)cc3cc12 (centres undefined)",
    "reported_endpoint": "GI50",
    "measured_result": "> 100 µM (inactive)"
  },
  {
    "compound": "N#CC(C(=N/NC(N)=S)/C(=N/NC(N)=S)C(C#N)c1ccc(Cl)cc1)c1ccc(Cl)cc1 (centres undefined)",
    "reported_endpoint": "GI50",
    "measured_result": "49.7 µM (inactive)"
  },
  {
    "compound": "Cc1cccc(C2=NC(C)(C)C(C)(C)N=C2c2cccc(C)n2)n1",
    "reported_endpoint": "GI50",
    "measured_result": "70.5 µM (inactive)"
  },
  {
    "compound": "COc1cc2c(c(OC)c1)C(=O)C(=O)C(CC1(C)OCCCO1)=C2",
    "reported_endpoint": "GI50",
    "measured_result": "4.51 µM (inactive)"
  }
]

----------
Tested on: A549
protocol_description: NCI tumour cell line growth inhibition, 48 h
The source made the active and inactive calls. No stated cut-off is given here; in the data, active = GI50 up to about 1.1 µM and inactive = higher.
Classes used: yes (active), no (inactive)

[
  {
    "molecule": "COc1cc(/C=C2/C[C@H]3[C@@H]4CC=C5C[C@@H](OC(C)=O)CC[C@]5(C)[C@H]4CC[C@]3(C)NC2=O)cc(OC)c1OC",
    "class": "no"
  },
  {
    "molecule": "NCCCCNCCCNC(=O)CNC(=O)CC(O)C(N)CCCC(NC(=O)C(CN)NC(=O)C(O)CNC(=O)CC(N)c1ccc(O)cc1)C(=O)O (stereo unspecified)",
    "class": "no"
  },
  {
    "molecule": "CCOC(=O)C1N(S(=O)(=O)c2ccc(C)cc2)CCC12C(c1ccc(OC)c(OC)c1)=Nc1ccccc12 (stereo unspecified)",
    "class": "no"
  },
  {
    "molecule": "CC1=C(CO)C(=O)OC(C(C)C2CCC3C4CC5OC56C(O)C(N5CC5)=CC(=O)C6(C)C4CCC23C)C1 (stereo unspecified)",
    "class": "no"
  },
  {
    "molecule": "Cc1ccc2c(c1)CC1(Cc3ccccc3C1=O)C2=O (stereo unspecified)",
    "class": "no"
  },
  {
    "molecule": "Clc1ncnc2c1nc(C#Cc1ccccc1)n2Cc1ccccc1",
    "class": "no"
  },
  {
    "molecule": "CCc1ccccc1/N=N/C(=O)NNc1ccccc1CC",
    "class": "no"
  },
  {
    "molecule": "CCC(/C(=N\\Nc1c(Cl)cc(Cl)cc1Cl)c1ccccc1)n1ccnc1C (stereo unspecified)",
    "class": "no"
  },
  {
    "molecule": "COc1ccc2c(c1)CC1c3c(ccc(OC)c3O)CC2N1C (stereo unspecified)",
    "class": "no"
  },
  {
    "molecule": "CC1(c2cccc3c2C2(O)C=CC4(CCC32)OCCO4)OCCO1 (stereo unspecified)",
    "class": "no"
  },
  {
    "molecule": "CN(C)/C=C/c1c2c(nc3ccccc13)C(=O)c1cccnc1C2=O",
    "class": "yes"
  },
  {
    "molecule": "CC(=O)OCc1ccc2oc(=O)c(C(=O)Oc3cccc(Cl)c3)cc2c1",
    "class": "no"
  },
  {
    "molecule": "COC(=O)c1cc2ccc(N)nc2[nH]c1=O",
    "class": "no"
  },
  {
    "molecule": "CCN(CC)CCN(C)CC(C)(C)C(=O)/C=C/c1ccccc1",
    "class": "no"
  },
  {
    "molecule": "Nc1ncc(Cc2nn3c(COc4ccc(Cl)cc4)nnc3s2)s1",
    "class": "no"
  },
  {
    "molecule": "N#CC(C(=N/NC(N)=S)/C(=N/NC(N)=S)C(C#N)c1ccc(Cl)cc1)c1ccc(Cl)cc1 (stereo unspecified)",
    "class": "no"
  },
  {
    "molecule": "Cn1cnc([N+](=O)[O-])c1Sc1nncc2[nH]cnc12",
    "class": "no"
  },
  {
    "molecule": "O=C(O)c1cc2c(cc1CC(Cc1ccc3c(c1)CCCC3)C(=O)O)CCCC2 (stereo unspecified)",
    "class": "no"
  },
  {
    "molecule": "Nc1nc(N)c2cc(-c3ccccc3)cnc2n1",
    "class": "no"
  },
  {
    "molecule": "COc1ccc(Nc2nc3c(N)cc(C(F)(F)F)cc3nc2-c2ccccc2)cc1OC",
    "class": "no"
  },
  {
    "molecule": "CCOC(=O)CC(=O)Nc1cccc2nc[nH]c12",
    "class": "no"
  }
]

----------
System: SK-MEL-28
protocol_description: NCI tumour cell line growth inhibition, 48 h
Calls of active or inactive are those of the source. No stated cut-off is given here; in the data, active = GI50 up to about 1.1 µM and inactive = higher. Where a SMILES comes first, the peptide text is derived from it. The star is where a group is joined. Boc = CC(C)(C)OC(=O)*
Outcome codes: active, inactive

[
  {
    "compound": "O=C(CCc1cc(-c2ccc(F)cc2)n[nH]1)N(Cc1ccccc1)Cc1ccccc1",
    "class": "inactive"
  },
  {
    "compound": "O=C(O)c1ccccc1Sc1ccccc1[N+](=O)[O-]",
    "class": "inactive"
  },
  {
    "compound": "COC(=O)C(C)NC(=O)C(CCSC)NC(=O)C(Cc1ccccc1)NC(=O)OC(C)(C)C (stereo not drawn) (Boc-Phe-Met-Ala-OMe; configuration not given here)",
    "class": "inactive"
  },
  {
    "compound": "O=C(CC1(O)C(=O)Nc2c(Cl)cc(Cl)cc21)c1ccc2ccccc2c1 (stereo unspecified)",
    "class": "inactive"
  },
  {
    "compound": "C/C(=N\\NC(=S)N1CCCCCCCCCCCC1)c1ccccn1",
    "class": "active"
  },
  {
    "compound": "O=C(/C=C/C(=O)N1CCCC1)N1CCCC1",
    "class": "inactive"
  },
  {
    "compound": "Nn1c(S)nnc1CCCCCCCCc1nnc(S)n1N",
    "class": "inactive"
  },
  {
    "compound": "O=C(O)CNc1ccc2c(c1)Cc1cc(Br)ccc1-2",
    "class": "inactive"
  },
  {
    "compound": "COC(=O)Nc1cc(OCCCOC(C)=O)c2[nH]c(C(=O)OC)cc2c1C[C@H](O)CO",
    "class": "inactive"
  },
  {
    "compound": "COc1cc2ccc(CC#N)cc2cc1OC",
    "class": "inactive"
  },
  {
    "compound": "COc1ccc(C(C#N)NC23CC4CC(CC(C4)C2)C3)cc1OC (stereo unspecified)",
    "class": "inactive"
  },
  {
    "compound": "COc1ccc2c(c1)-c1c(c3cc(OC)ccc3n1CCN(C)C)CC2",
    "class": "inactive"
  },
  {
    "compound": "COc1cc2c(c(OC)c1)C(=O)C(=O)C(CC1(C)OCCCO1)=C2",
    "class": "inactive"
  },
  {
    "compound": "CCOC(=O)CC(=O)Nc1cccc2nc[nH]c12",
    "class": "inactive"
  },
  {
    "compound": "O=c1c2cc(Br)ccc2nc(-c2ccccc2)n1NCC1(O)OCC(O)C(O)C1O (stereo unspecified)",
    "class": "inactive"
  },
  {
    "compound": "O=C1OCC2C1C1c3ccccc3C(O)c3ccccc3C21 (stereo unspecified)",
    "class": "inactive"
  },
  {
    "compound": "CCOP(=O)(OCC)C(F)(F)CC1CCCCC1",
    "class": "inactive"
  },
  {
    "compound": "N#CCCN(CCC#N)c1ccc(C(Sc2ccccc2)C(NC(=O)c2cc([N+](=O)[O-])ccc2Cl)C(=O)Sc2ccccc2)cc1 (stereo unspecified)",
    "class": "inactive"
  },
  {
    "compound": "O=C1CCC(CCc2nc3ccccc3[nH]2)(c2ccccc2)C(=O)N1 (stereo unspecified)",
    "class": "inactive"
  },
  {
    "compound": "CC(=O)c1c(=O)n(-c2ccc(C)cc2)c(O)c2c(N)n[nH]c12",
    "class": "inactive"
  },
  {
    "compound": "Nc1c2c(nc3ccccc13)CCCc1ccccc1-2",
    "class": "inactive"
  }
]
